Biological target: Neuropeptide Y receptor type 1 (Homo sapiens)
Sequence (P25929 whole entry): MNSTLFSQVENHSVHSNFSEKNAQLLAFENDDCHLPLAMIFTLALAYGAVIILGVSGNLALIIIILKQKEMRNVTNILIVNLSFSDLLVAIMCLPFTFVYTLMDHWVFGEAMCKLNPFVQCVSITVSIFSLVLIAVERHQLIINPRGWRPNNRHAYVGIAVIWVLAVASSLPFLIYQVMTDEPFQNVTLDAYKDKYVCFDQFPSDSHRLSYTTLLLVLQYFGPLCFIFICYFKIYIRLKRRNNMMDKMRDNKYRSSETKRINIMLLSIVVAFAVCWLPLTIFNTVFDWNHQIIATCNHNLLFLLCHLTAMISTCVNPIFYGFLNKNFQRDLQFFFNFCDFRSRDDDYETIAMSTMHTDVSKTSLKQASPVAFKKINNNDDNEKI
Experiment: Ability to displace [125I]pPYY from AV12 cell line stably transfected with cloned human neuropeptide Y receptor type 1.
Type: cell-based
TEST READOUT: Ki (µM)

• CN(C)C1CCN(CCc2c(C(O)c3ccc(Cl)cc3Cl)sc3ccccc23)CC1 (stereo not given) = 3.8
• CN(C)C1CCN(CCc2c(COc3ccc(Cl)cc3Cl)sc3ccccc23)CC1 = 0.14

1. CN(C)C1CCN(CCc2c(COc3ccc(Br)cc3C(F)(F)F)sc3ccccc23)CC1
2. CN(C)C1CCN(CCc2c(COc3ccc(C#N)cc3Br)sc3ccccc23)CC1
In: Higher Ki: 1 or 2 ? Could you answer with the label of the item you picked?
Out: 1

* * *

Biological target: Neuropeptide Y receptor type 1 (Homo sapiens)
Assay: Ability to displace [125I]pPYY from AV12 cell line stably transfected with cloned human neuropeptide Y receptor type 1.
Type: cell-based
TEST READOUT: Ki (µM)

• COC(c1ccc(Cl)cc1Cl)c1sc2ccccc2c1CCN1CCC(N(C)C)CC1 (stereo not given) = 4

1. CN(C)C1CCN(CCc2c(C(=O)c3ccc(Cl)cc3Cl)sc3ccccc23)CC1
2. CN(C)C1CCN(CCc2c(CNc3ccc(Cl)cc3Cl)sc3ccccc23)CC1
3. CN(C)C1CCN(CCc2c(C(C)(C)Oc3ccc(Cl)cc3Cl)sc3ccccc23)CC1
4. CN(C)C1CCN(CCc2c(COc3ccc(Br)cc3CO)sc3ccccc23)CC1
In: // ascending sort on recorded Ki A complete answer lists every label in the requested sequence.
Out: 4, 2, 1, 3
(4: 0.015 µM, 2: 1.7 µM, 1: 5.6 µM, 3: 12 µM)

* * *

Target: Neuropeptide Y receptor type 1 (Homo sapiens, UniProt P25929)
Test: Ability to displace [125I]pPYY from AV12 cell line stably transfected with cloned human neuropeptide Y receptor type 1.
Assay type: cell-based
pKi: −log10 of the molar value.
TEST READOUT: pKi

These recorded examples may help you get a feel for the data.
• C=CCc1ccccc1OCc1sc2ccccc2c1CCN1CCC(N(C)C)CC1 = 6.01
• CN(C)C1CCN(CCc2c(COc3ccc(Br)cc3C(N)=O)sc3ccccc23)CC1 = 6.76
• CN(C)C1CCN(CCc2c(COc3ccc(-c4ccccc4)cc3)sc3ccccc23)CC1 = 5.43
• CN(C)C1CCN(CCc2c(/C=C/c3ccc(Cl)cc3Cl)sc3ccccc23)CC1 = 4.91
• CN(C)C1CCN(CCc2c(COc3ccccc3Br)sc3ccccc23)CC1 = 6.35

P. CN(C)C1CCN(CCc2c(COc3ccc(Cl)cc3)sc3ccccc23)CC1
Q. Cc1ccc(OCc2sc3ccccc3c2CCN2CCC(N(C)C)CC2)c(C(C)(C)C)c1
R. CN(C)C1CCN(CCc2c(COc3ccc(Br)cc3C#N)sc3ccccc23)CC1
In: Order the records so the highest pKi appears first and the lowest last. // respond by listing labels in the order requested
Out: R, P, Q

A. Clc1ccc(OCc2sc3ccccc3c2CN2CCCCC2)cc1
B. Cc1ccc(OCc2sc3ccccc3c2CCN2CCC(N(C)C)CC2)c(Br)c1
In: Recorded pKi values differ for A and B ; which one is higher? # reply format: chosen label
Out: B

* * *

Target: Neuropeptide Y receptor type 1 (Homo sapiens)
Sequence (P25929 whole entry): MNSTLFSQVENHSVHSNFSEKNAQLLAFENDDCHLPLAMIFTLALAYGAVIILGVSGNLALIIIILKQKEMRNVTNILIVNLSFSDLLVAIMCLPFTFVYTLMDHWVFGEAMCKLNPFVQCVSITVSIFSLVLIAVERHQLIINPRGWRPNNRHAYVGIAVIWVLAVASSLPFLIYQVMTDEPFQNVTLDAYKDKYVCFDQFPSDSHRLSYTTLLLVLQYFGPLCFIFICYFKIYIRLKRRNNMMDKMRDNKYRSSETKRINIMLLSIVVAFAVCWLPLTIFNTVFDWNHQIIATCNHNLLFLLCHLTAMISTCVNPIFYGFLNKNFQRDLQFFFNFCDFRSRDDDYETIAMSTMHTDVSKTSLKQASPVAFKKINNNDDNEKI
Assay: Functional Neuropeptide Y receptor type 1 antagonism was evaluated by its ability to reverse NPY induced inhibition of forskolin-stimulated cyclic AMP production in SK-N-MC cells
Type: cell-based
TEST READOUT: Ki (µM)

I. CN(C)C1CCN(CCc2c(COc3ccc(Br)cc3CO)sc3ccccc23)CC1
II. CN(C)C1CCN(CCc2c(COc3ccc(Cl)cc3Cl)sc3ccccc23)CC1
In: Lab note: check whether I or II has the lower measured Ki. Identify your selection by its label.
Out: I
(I: 1.2 µM, II: 4.7 µM)

* * *

Biological target: Neuropeptide Y receptor type 1 (Homo sapiens, UniProt P25929)
Assay: Ability to displace [125I]pPYY from AV12 cell line stably transfected with cloned human neuropeptide Y receptor type 1.
Format: cell-based
pKi: −log10 of the molar value.
TEST READOUT: pKi

Known pKi results, listed for orientation:
* Cc1ccc(OCc2sc3ccccc3c2CCN2CCC(N(C)C)CC2)cc1 | 6.43
* CN(C)C1CCN(CCc2c(/C=N/c3ccc(Cl)cc3Cl)sc3ccccc23)CC1 | 4.90
* CN(C)C1CCN(CCc2c(COc3ccccc3CO)sc3ccccc23)CC1 | 6.35
* CN(C)C1CCN(CCc2c(C(=O)Nc3ccc(Cl)cc3Cl)sc3ccccc23)CC1 | 5.64
* Cc1ccc(OCc2sc3ccccc3c2CCN2CCC(N(C)C)CC2)c(C)c1 | 6.92
* CNCc1cc(Br)ccc1OCc1sc2ccccc2c1CCN1CCC(N(C)C)CC1 | 6.18

I. CN(C)C1CCN(CCc2c(COc3ccc(CO)cc3Br)sc3ccccc23)CC1
II. CN(C)Cc1cc(Br)ccc1OCc1sc2ccccc2c1CCN1CCC(N(C)C)CC1
In: I need your help: which of the pair I , II has higher pKi? Write down the label of the entry you select.
Out: I
(I: 6.72, II: 5.61)

P. CN(C)C1CCN(CCc2c(COc3ccccc3C=O)sc3ccccc23)CC1
Q. CC(Oc1ccc(Cl)cc1Cl)c1sc2ccccc2c1CCN1CCC(N(C)C)CC1 (stereo not given)
In: Pick one: P or Q . Which one has the lower reported pKi? Pick one; state its label.
Out: P

* * *

Molecular target: Neuropeptide Y receptor type 1 (Homo sapiens, UniProt P25929)
Sequence (P25929 whole entry): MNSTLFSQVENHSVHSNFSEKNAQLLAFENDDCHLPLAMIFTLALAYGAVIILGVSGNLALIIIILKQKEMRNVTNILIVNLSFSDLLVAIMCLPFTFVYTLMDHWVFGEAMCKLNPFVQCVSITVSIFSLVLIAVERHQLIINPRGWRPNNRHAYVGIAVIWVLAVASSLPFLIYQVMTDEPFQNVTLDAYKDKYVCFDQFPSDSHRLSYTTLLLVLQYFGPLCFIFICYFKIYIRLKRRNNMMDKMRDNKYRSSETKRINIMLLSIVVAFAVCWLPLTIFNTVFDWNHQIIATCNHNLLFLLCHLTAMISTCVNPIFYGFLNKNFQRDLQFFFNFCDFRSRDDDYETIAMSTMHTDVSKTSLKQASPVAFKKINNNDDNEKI
Test: Ability to displace [125I]pPYY from AV12 cell line stably transfected with cloned human neuropeptide Y receptor type 1.
Assay type: cell-based
pKi: −log10 of the molar value.
TEST READOUT: pKi

- CN(C)C1CCN(CCc2c(C#Cc3ccc(Cl)cc3Cl)sc3ccccc23)CC1: 5.10

a. CN(C)C1CCN(CCc2c(/C=N/Nc3ccc(Cl)cc3Cl)sc3ccccc23)CC1
b. CN(C)C1CCN(CCc2c(CO)sc3ccccc23)CC1
In: Hi there, can you help? I need to know whether a or b has lower measured pKi. The response must carry the label of the picked entry.
Out: b

* * *

Target: Neuropeptide Y receptor type 1 (Homo sapiens)
Sequence (P25929 whole entry): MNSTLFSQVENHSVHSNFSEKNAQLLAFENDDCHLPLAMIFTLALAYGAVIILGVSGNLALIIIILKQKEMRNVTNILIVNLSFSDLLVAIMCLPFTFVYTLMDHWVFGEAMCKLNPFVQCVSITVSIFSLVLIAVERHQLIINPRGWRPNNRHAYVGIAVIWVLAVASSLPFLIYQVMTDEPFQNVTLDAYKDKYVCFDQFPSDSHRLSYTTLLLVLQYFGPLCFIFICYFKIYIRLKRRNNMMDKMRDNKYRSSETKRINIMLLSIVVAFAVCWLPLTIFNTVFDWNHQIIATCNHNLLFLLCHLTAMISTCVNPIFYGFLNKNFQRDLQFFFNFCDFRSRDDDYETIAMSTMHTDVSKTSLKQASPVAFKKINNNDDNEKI
Test: Ability to displace [125I]pPYY from AV12 cell line stably transfected with cloned human neuropeptide Y receptor type 1.
Format: cell-based
TEST READOUT: Ki (nM)

Please review the following examples before continuing.
• CN(C)C1CCN(CCc2c(COc3ccc(Br)cc3)sc3ccccc23)CC1 = 160
• Clc1ccc(OCc2sc3ccccc3c2CCCN2CCCCC2)cc1 = 2600
• CN(C)C1CCN(CCc2c(Cc3ccc(Cl)cc3Cl)sc3ccccc23)CC1 = 4200
• CC(CN1CCC(N(C)C)CC1)c1c(COc2ccc(Cl)cc2Cl)sc2ccccc12 (stereo not given) = 690
• CN(C)C1CCN(CCc2c(COc3ccccc3I)sc3ccccc23)CC1 = 380

A. Cc1cc(C)c(OCc2sc3ccccc3c2CCN2CCC(N(C)C)CC2)c(C)c1
B. Cc1ccccc1OCc1sc2ccccc2c1CCN1CCC(N(C)C)CC1
C. CN(C)C1CCN(CCc2c(COc3ccc(C(F)(F)F)cc3)sc3ccccc23)CC1
In: Ranking field: Ki; order: falling. Please reply with the labels ordered as requested. Many thanks.
Out: A, C, B
(A: 2420 nM, C: 740 nM, B: 420 nM)

P. CN(C)C1CCN(CCc2c(COc3ccc(Br)cc3Br)sc3ccccc23)CC1
Q. CN(C)C1CCN(CCc2c(COc3c(Br)cc(Br)cc3Br)sc3ccccc23)CC1
In: Which value of Ki is greater, the one for P or the one for Q ? Refer to your chosen entry by its label in the reply.
Out: Q
(Q: 3600 nM, P: 120 nM)

From: ChEMBL document CHEMBL1131936
